Catalogue of TGI values
# Tested on: OVCAR-8 ovarian
# assay-notes: NCI tumour cell line growth inhibition, 48 h

[
  {
    "molecule": "COc1cc(C2C3=C(COC3=O)OC(C)(C)Oc3cc4c(cc32)OCO4)cc(OC)c1O (stereo not given)",
    "TGI": "> 100 µM"
  },
  {
    "molecule": "O=c1[nH]c2cccc([N+](=O)[O-])c2c(=O)n1-c1ccc(Cl)cc1",
    "TGI": "29.4 µM"
  },
  {
    "molecule": "CCOC(=O)C1(CO)CSCCSC1",
    "TGI": "> 100 µM"
  },
  {
    "molecule": "CCCCNC(=S)Nc1nc(C(=O)NNC(=S)NCC)cs1",
    "TGI": "> 100 µM"
  },
  {
    "molecule": "NC(CSS(=O)(=O)O)=NC1CC2CCC1C2 (stereo not given)",
    "TGI": "> 100 µM"
  }
]

The molecule identified as "C=CCN1C(=O)/C(=C/c2ccc(Cl)cc2)N=C1SC/C=C/C" registered its TGI at > 100 µM

The molecule identified as O=C(O)CP(=S)(S)c1ccccc1 (stereo not given) registered its TGI at > 100 µM

The molecule identified as CN/N=C(/CCN1CCCC1)CC(c1ccccc1)c1c(O)c2ccccc2oc1=O (stereo not given) registered its TGI at > 100 µM

The molecule identified as "Cc1nc2ccccc2c(=O)n1NC(=O)c1ccccn1" registered its TGI at > 100 µM

The molecule identified as "CCC#CC[C@H]1C/C=C2/C(=O)C=C[C@@H]2C/C=C\CCCC(=O)O1" registered its TGI at 9.71 µM
